Literature compilation of IC50 measurements on Fibroblast growth factor receptor 2 (Homo sapiens).

molecule: O=Cc1ccc2c(n1)N(C(=O)Nc1cc(F)c(C#Cc3ccccn3)cn1)CCC2
IC50: > 10 µM

molecule: CC(C)Oc1cc(NC(=O)N2CCCc3ccc(C=O)nc32)ncc1C#Cc1ccc(C#N)cc1
IC50: > 10 µM

molecule: Cc1cc(C(=O)NC(C)(C)C)cc(C#Cc2ccc3c4c(oc3c2)C(C)(C)c2cc(NS(C)(=O)=O)ccc2C4=O)n1
IC50: > 10 µM

Query string: Retrieve IC50 on Fibroblast growth factor receptor 2 (Homo sapiens); query "C=CC(=O)Nc1cc(N2CCN(S(C)(=O)=O)CC2)cc(F)c1Nc1c[nH]c2ccc(O[C@H](C)c3c(Cl)cncc3Cl)cc12"
Result string: > 10 µM

Query string: Fill in IC50 for "CC(C)Oc1cc(NC(=O)N2CCCc3ccc(C=O)nc32)ncc1C#Cc1ccccc1" tested with Fibroblast growth factor receptor 2 (Homo sapiens).
Result string: > 10 µM

Query string: Provide IC50, tested on Fibroblast growth factor receptor 2 (Homo sapiens), for "COc1cc(OC)c(Cl)c(C#Cc2cnc(NC(=O)N3CCCc4ccc(C=O)nc43)cc2OC(C)C)c1Cl" .
Result string: > 10 µM

Query string: Report value: IC50, system: Fibroblast growth factor receptor 2 (Homo sapiens), molecule: "Cc1n[nH]c2ccc(-c3cc(N[C@@H](CO)c4ccccc4)cnc3-c3ccccc3C(F)(F)F)cc12"
Result string: > 1 µM

Query string: Please tell me the measured IC50 for "COc1cc2nccc(Oc3ccc(Nc4ccc(C(C)(C)C)cc4)cc3C)c2cc1OC" ; system: Fibroblast growth factor receptor 2 (Homo sapiens).
Result string: > 10 µM

----------
Reported pIC50 on Fibroblast growth factor receptor 2 (Homo sapiens, UniProt P21802) for assorted compounds, compiled from publications.
Sequence (P21802 whole entry): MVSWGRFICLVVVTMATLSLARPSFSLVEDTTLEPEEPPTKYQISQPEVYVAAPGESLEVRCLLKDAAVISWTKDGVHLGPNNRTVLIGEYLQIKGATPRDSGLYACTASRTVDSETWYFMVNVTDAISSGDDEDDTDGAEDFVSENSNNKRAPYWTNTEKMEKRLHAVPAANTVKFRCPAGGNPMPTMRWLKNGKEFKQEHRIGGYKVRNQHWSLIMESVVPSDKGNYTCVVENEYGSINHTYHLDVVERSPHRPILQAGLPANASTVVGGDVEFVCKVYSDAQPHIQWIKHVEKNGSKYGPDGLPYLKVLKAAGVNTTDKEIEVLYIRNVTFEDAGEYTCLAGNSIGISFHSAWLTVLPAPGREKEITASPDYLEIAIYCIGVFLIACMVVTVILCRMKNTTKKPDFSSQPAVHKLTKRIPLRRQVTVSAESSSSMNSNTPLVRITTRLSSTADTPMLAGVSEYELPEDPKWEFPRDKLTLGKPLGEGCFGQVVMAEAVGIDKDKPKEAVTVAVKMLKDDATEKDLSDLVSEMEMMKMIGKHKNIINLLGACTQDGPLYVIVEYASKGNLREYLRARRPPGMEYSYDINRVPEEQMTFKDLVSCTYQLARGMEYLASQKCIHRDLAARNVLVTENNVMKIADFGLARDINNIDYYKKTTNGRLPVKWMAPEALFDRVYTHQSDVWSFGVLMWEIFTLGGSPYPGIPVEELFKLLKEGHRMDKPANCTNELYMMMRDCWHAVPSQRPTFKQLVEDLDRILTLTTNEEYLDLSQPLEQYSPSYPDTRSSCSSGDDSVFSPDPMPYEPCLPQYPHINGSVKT
pIC50: −log10 of the molar value.

compound: CCOc1cc(NC(=O)N2CCCc3ccc(C(=O)C(F)(F)F)nc32)ncc1C#N
pIC50: < 5.00

compound: CC1(C)c2cc(OCCN3CCOCC3)ccc2C(=O)c2c1oc1cc(C#Cc3cc(OCC4CC4)ccn3)ccc21
pIC50: < 5.00

compound: CCOC(=O)C1=C2C(=NC1=O)c1cccc3cccc2c13
pIC50: < 5.00

compound: CC(C)Oc1cc(NC(=O)N2CCCc3ccc(C=O)nc32)ncc1C#Cc1cncnc1
pIC50: < 5.00

compound: COC[C@H](C)Nc1cc(NC(=O)N2CCCc3ccc(C=O)nc32)ncc1C#Cc1cccnc1
pIC50: < 5.00

compound: N#Cc1cnc(NC(=O)N2CCCc3ccc(C(=O)C(F)(F)F)nc32)cc1OC1CCOC1 (stereo not drawn)
pIC50: < 5.00

Query string: Please indicate recorded pIC50 of "C=CC(=O)Nc1cccc(Cl)c1Nc1n[nH]c2ccc(O[C@H](C)c3c(Cl)cncc3Cl)cc12" measured with Fibroblast growth factor receptor 2 (Homo sapiens, UniProt P21802).
Result string: < 5.00

Query string: System Fibroblast growth factor receptor 2 (Homo sapiens, UniProt P21802). Read-out pIC50. Item "Cc1n[nH]c2ccc(-c3cc(N[C@@H](CO)c4ccccc4)cnc3-c3ccco3)cc12" . Report value.
Result string: 6.00 to 7.00

----------
The entries that follow carry IC50 values tested on Fibroblast growth factor receptor 2 (Homo sapiens, UniProt P21802), drawn from several published reports.

Worked set:
compound.structure: Cc1n[nH]c2ccc(-c3cc(NCCO)cnc3-c3cc(F)ccc3O)cc12
assay.system: Fibroblast growth factor receptor 2 (Homo sapiens, UniProt P21802)
IC50: > 1 µM
--
compound.structure: COCCNc1cc(NC(=O)N2CCCc3ccc(C=O)nc32)ncc1C#Cc1ccccn1
assay.system: Fibroblast growth factor receptor 2 (Homo sapiens, UniProt P21802)
IC50: > 10 µM
--
compound.structure: N#Cc1cnc(NC(=O)N2CCCc3ccc(C(=O)C(F)(F)F)nc32)cc1OC1CCCCC1
assay.system: Fibroblast growth factor receptor 2 (Homo sapiens, UniProt P21802)
IC50: > 10 µM
--
compound.structure: CN1CCN(c2ccc(-c3c(-c4cc(F)c(O)c(F)c4)cnc4[nH]ccc34)cc2)CC1
assay.system: Fibroblast growth factor receptor 2 (Homo sapiens, UniProt P21802)
IC50: < 1 µM

Query string: Recall and state the measured IC50 for "C=CC(=O)Nc1cn(C)nc1Nc1n[nH]c2ccc(O[C@H](C)c3c(Cl)cncc3Cl)cc12" .
Result string: > 10 µM
